- subjectOfTest: human secretin receptor (hSCTR) (human, UniProt P47872 23-440)
- Sequence (P47872 23-440): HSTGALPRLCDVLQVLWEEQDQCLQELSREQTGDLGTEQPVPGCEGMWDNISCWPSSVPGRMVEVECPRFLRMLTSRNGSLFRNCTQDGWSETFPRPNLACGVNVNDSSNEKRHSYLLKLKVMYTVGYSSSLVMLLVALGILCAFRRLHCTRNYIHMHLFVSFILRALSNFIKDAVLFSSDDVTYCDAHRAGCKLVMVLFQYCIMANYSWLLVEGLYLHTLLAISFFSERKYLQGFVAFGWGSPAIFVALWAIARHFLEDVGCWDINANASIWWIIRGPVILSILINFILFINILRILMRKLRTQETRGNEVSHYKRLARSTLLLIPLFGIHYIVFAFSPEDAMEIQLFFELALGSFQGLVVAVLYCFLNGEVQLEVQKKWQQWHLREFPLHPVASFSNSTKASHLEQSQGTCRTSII
- testName: cell-based or functional assay
Numbered stars: 1 amine (or outer) side, 2 acyl side, 3 side chain; on linkers, the order of the positions; unused ones are H or OH. Square brackets hold non-standard residues; d marks the D form. Side chains are listed from the residue outwards. Ends that are not written are not given here. * marks the point of attachment. C20 diacid = O=C(O)CCCCCCCCCCCCCCCCCCC(=O)*; γGlu = O=C(O)[C@H](CCC(=O)[*:2])N[*:1]; AEEA = NCCOCCOCC(=O)O; Aib = CC(C)(N)C(=O)O
quantity: pEC50 hSCTR

{"columns": ["binder", "endpointValue"],
 "data": [
  ["H[Aib]EGTFTSDVSFLK([AEEA-AEEA-γGlu-C20 diacid])EFAASQRFLEHLV-NH2 [SEQ ID NO: 91]", "4.5 -log M"],
  ["H[Aib]EGTFTSDVSELK([AEEA-AEEA-γGlu-C20 diacid])E[Aib]AAQQRFLEHLV-NH2 [SEQ ID NO: 5]", "7.1 -log M"],
  ["HGEGTFTSDVSYLKEEA[Aib]LQRFLEHLV-NH2 (not fully specified (residue 14); also: K14 lipidated with C20DA[γE][OEG][OEG]- or C18DA[γE][OEG][OEG]-) [SEQ ID NO: 142]", "4.7 -log M"],
  ["H[Aib]EGTFTSDVSYLWEEA[Aib]LQRFLEKLV-NH2 (not fully specified (residue 25)) [SEQ ID NO: 130]", "6 -log M"],
  ["H[Aib]EGTFTSDVSWLK([AEEA-AEEA-γGlu-C20 diacid])EEA[Aib]LQRFLEHLV-NH2 [SEQ ID NO: 174]", "7 -log M"],
  ["H[Aib]EGTFTSDVS[Aib]LKEEA[Aib]LQRFLEHLV-NH2 (not fully specified (residue 14)) [SEQ ID NO: 163]", "7.4 -log M"],
  ["H[Aib]EGTFTSDVSALKEEA[Aib]LQRFLEHLV-NH2 (not fully specified (residue 14)) [SEQ ID NO: 148]", "7.2 -log M"],
  ["H[Aib]EGTFTSDVSTLK([AEEA-AEEA-γGlu-C20 diacid])ELAA[Aib]QRFLEHLV-NH2 [SEQ ID NO: 79]", "5.5 -log M"],
  ["H[Aib]EGTFTSDVSYL[Aib]EEA[Aib]LQRFLEKLV-NH2 (not fully specified (residue 25)) [SEQ ID NO: 158]", "5.8 -log M"],
  ["H[Aib]EGTFTSD[Aib]SYLK([AEEA-AEEA-γGlu-C20 diacid])EEA[Aib]LQRFLEHLV-NH2 (also: K14 lipid also given as C18DA[γE][OEG][OEG]-) [SEQ ID NO: 103]", "5 -log M"],
  ["H[Aib]EGTFTSDYSYLK([AEEA-AEEA-γGlu-C20 diacid])EEA[Aib]LQRFLEHLV-NH2 [SEQ ID NO: 196]", "7.7 -log M"],
  ["H[Aib]EGTFTSDVSVLK([AEEA-AEEA-γGlu-C20 diacid])EEAATQRFLEHLV-NH2 [SEQ ID NO: 53]", "7.2 -log M"],
  ["H[Aib]EGTFTSDWSYLK([AEEA-AEEA-γGlu-C20 diacid])EEA[Aib]LQRFLEHLV-NH2 [SEQ ID NO: 185]", "7.3 -log M"],
  ["H[Aib]EGTFTSDVSRLK([AEEA-AEEA-γGlu-C20 diacid])ELAASQRFLEHLV-NH2 [SEQ ID NO: 19]", "6.2 -log M"],
  ["H[Aib]EGTFTSDVSELK([AEEA-AEEA-γGlu-C20 diacid])ETAAAQRFLEHLV-NH2 [SEQ ID NO: 57]", "5.3 -log M"],
  ["H[Aib]EGTFTSDVSFLK([AEEA-AEEA-γGlu-C20 diacid])EEAA[Aib]QRFLEHLV-NH2 [SEQ ID NO: 37]", "5.7 -log M"],
  ["H[Aib]EGTFTSDVSELK([AEEA-AEEA-γGlu-C20 diacid])EEAATQRFLEHLV-NH2 [SEQ ID NO: 55]", "6.8 -log M"],
  ["H[Aib]EGTFTSDVSELKEEAAAQRFLEHLV-NH2 (not fully specified (residue 14)) [SEQ ID NO: 98]", "5.9 -log M"],
  ["H[Aib]EGTFTSDVSRLK([AEEA-AEEA-γGlu-C20 diacid])E[Aib]AA[Aib]QRFLEHLV-NH2 [SEQ ID NO: 64]", "6.5 -log M"]
]}
